Assay: Growth inhibition of human HEK293 cells after 72 hrs by SRB assay
Type: cell-based
Conditions: read-out: ED50
Measurement Name: GI50 at 72 h
Give the number first and the unit second.

Look up GI50 at 72 h: `C=C1CC[C@@H]2[C@](C)(COC(c3ccccc3)(c3ccccc3)c3ccccc3)[C@H](OC(C)=O)CC[C@@]2(C)[C@@H]1/C=C/C1=CCOC1=O` 7.02 µM

Further, for `C=C1CC[C@@H]2[C@](C)(CO[Si](C(C)C)(C(C)C)C(C)C)[C@H](O)CC[C@@]2(C)[C@@H]1/C=C/C1=CCOC1=O` ? 5.28 µM

Further, for `C=C1CC[C@@H]2[C@](C)(COC(c3ccccc3)(c3ccccc3)c3ccccc3)[C@H](O)CC[C@@]2(C)[C@@H]1/C=C/C1=CCOC1=O` ? 4.68 µM

Further, for `CC(C)(C)[Si](C)(C)OC[C@@]1(C)[C@H]2CC[C@@]3(CO3)[C@@H](/C=C/C3=CCOC3=O)[C@]2(C)CC[C@H]1O` ? 6.15 µM

Further, for `CC(=O)OC[C@@]1(C)[C@H]2CC[C@@]3(CO3)[C@@H](/C=C/C3=CCOC3=O)[C@]2(C)CC[C@H]1O` ? 38.1 µM

Further, for `CC(=O)O[C@@H]1CC[C@]2(C)[C@H](CC[C@@]3(CO3)[C@H]2/C=C/C2=CCOC2=O)[C@]1(C)COC(c1ccccc1)(c1ccccc1)c1ccccc1` ? 5.99 µM

Please look at the following compound next.
Look up GI50 at 72 h: Cc1c2ccncc2c(C)c2c1[nH]c1ccccc12 [ELLIPTECINE] 2.27 µM

###

Tested on: A549
Experiment: Growth inhibition of human A549 cells after 72 hrs by SRB assay
Type: functional
Details: A549, 72 h, read-out: ED50 (the source's name)
pEC50: −log10 of the molar value.
pEC50 vs 5: at or above is criterion met, below is criterion not met.

Evaluate `CC(=O)O[C@@H]1CC[C@]2(C)[C@H](CC[C@@]3(CO3)[C@H]2/C=C/C2=CCOC2=O)[C@]1(C)CO[Si](C)(C)C(C)(C)C` : pEC50 at minimum 5? criterion not met

Further, for `CC(=O)OC[C@@]1(C)[C@H]2CC[C@@]3(CO3)[C@@H](/C=C/C3=CCOC3=O)[C@]2(C)CC[C@H]1O` ? criterion not met

Further, for `C[C@]1(COC(c2ccccc2)(c2ccccc2)c2ccccc2)[C@H]2CC[C@@]3(CO3)[C@@H](/C=C/C3=CCOC3=O)[C@]2(C)CC[C@H]1O` ? criterion met

Further, for `C=C1CC[C@@H]2[C@](C)(COC(C)=O)[C@H](O)CC[C@@]2(C)[C@@H]1/C=C/C1=CCOC1=O` ? criterion not met

Further, for `C=C1CC[C@@H]2[C@](C)(COC(C)=O)[C@H](OC(C)=O)CC[C@@]2(C)[C@@H]1/C=C/C1=CCOC1=O` ? criterion not met

Further, for `C=C1CC[C@@H]2[C@](C)(CO[Si](c3ccccc3)(c3ccccc3)C(C)(C)C)[C@H](O)CC[C@@]2(C)[C@@H]1/C=C/C1=CCOC1=O` ? criterion met

Continuing:
Evaluate `Cc1c2ccncc2c(C)c2c1[nH]c1ccccc12` : pEC50 at minimum 5? criterion met

Further, for `C=C1CC[C@@H]2[C@](C)(CO[Si](C(C)C)(C(C)C)C(C)C)[C@H](OC(C)=O)CC[C@@]2(C)[C@@H]1/C=C/C1=CCOC1=O` ? criterion not met

Further, for `CC(C)(C)[Si](OC[C@@]1(C)[C@H]2CC[C@@]3(CO3)[C@@H](/C=C/C3=CCOC3=O)[C@]2(C)CC[C@H]1O)(c1ccccc1)c1ccccc1` ? criterion met

Further, for `CC(=O)OC[C@@]1(C)[C@H]2CC[C@@]3(CO3)[C@@H](/C=C/C3=CCOC3=O)[C@]2(C)CC[C@H]1OC(C)=O` ? criterion not met

Further, for `C=C1CC[C@@H]2[C@](C)(COC(c3ccccc3)(c3ccccc3)c3ccccc3)[C@H](O)CC[C@@]2(C)[C@@H]1/C=C/C1=CCOC1=O` ? criterion met

###

Test: Growth inhibition of rat ASK cells after 72 hrs by SRB assay
Assay type: functional
Conditions: read-out: ED50 (the source's name)
Measurement Name: EC50

Worked cases, EC50 given:
Look up EC50: `CC(=O)O[C@@H]1CC[C@]2(C)[C@H](CC[C@@]3(CO3)[C@H]2/C=C/C2=CCOC2=O)[C@]1(C)CO[Si](c1ccccc1)(c1ccccc1)C(C)(C)C` 8.96 µM

Further, for `CC(=O)OC[C@@]1(C)[C@H]2CC[C@@]3(CO3)[C@@H](/C=C/C3=CCOC3=O)[C@]2(C)CC[C@H]1OC(C)=O` ? > 50 µM

Further, for `C=C1CC[C@@H]2[C@](C)(COC(c3ccccc3)(c3ccccc3)c3ccccc3)[C@H](O)CC[C@@]2(C)[C@@H]1/C=C/C1=CCOC1=O` ? 7.45 µM

Further, for `C=C1CC[C@@H]2[C@](C)(CO)[C@H](O)CC[C@@]2(C)[C@@H]1/C=C/C1=CCOC1=O` ? > 50 µM

Lab note: each molecule below needs its EC50 filled in.
1. C[C@]1(CO)[C@H]2CC[C@@]3(CO3)[C@@H](/C=C/C3=CCOC3=O)[C@]2(C)CC[C@H]1O
2. CC(C)[Si](OC[C@@]1(C)[C@H]2CC[C@@]3(CO3)[C@@H](/C=C/C3=CCOC3=O)[C@]2(C)CC[C@H]1O)(C(C)C)C(C)C
3. C=C1CC[C@@H]2[C@](C)(COC(C)=O)[C@H](O)CC[C@@]2(C)[C@@H]1/C=C/C1=CCOC1=O

["> 50 µM", "6.6 µM", "> 50 µM"]

###

Assay: Growth inhibition of human KKU-M213 cells after 72 hrs by SRB assay
Format: functional
Conditions: KKU-M213, 72 h, read-out: ED50 (the source's name)
For each record, write down the corresponding pEC50.
Answers are plain numbers, as −log10 of the molar value.

Worked cases, pEC50 given:
Look up pEC50: `C=C1CC[C@@H]2[C@](C)(CO[Si](C)(C)C(C)(C)C)[C@H](O)CC[C@@]2(C)[C@@H]1/C=C/C1=CCOC1=O` 4.56

Further, for `C=C1CC[C@@H]2[C@](C)(CO[Si](c3ccccc3)(c3ccccc3)C(C)(C)C)[C@H](O)CC[C@@]2(C)[C@@H]1/C=C/C1=CCOC1=O` ? 5.29

Please look at the following molecule next.
Look up pEC50: `CC(C)[Si](OC[C@@]1(C)[C@H]2CC[C@@]3(CO3)[C@@H](/C=C/C3=CCOC3=O)[C@]2(C)CC[C@H]1O)(C(C)C)C(C)C` 5.47

###

Experiment: Growth inhibition of human HEK293 cells after 72 hrs by SRB assay
Format: cell-based
Conditions: read-out: ED50
Measurement Name: GI50 at 72 h

Look up GI50 at 72 h: `C=C1CC[C@@H]2[C@](C)(CO[Si](c3ccccc3)(c3ccccc3)C(C)(C)C)[C@H](OC(C)=O)CC[C@@]2(C)[C@@H]1/C=C/C1=CCOC1=O` 5.57 µM

Further, for `CC(=O)OC[C@@]1(C)[C@H]2CC[C@@]3(CO3)[C@@H](/C=C/C3=CCOC3=O)[C@]2(C)CC[C@H]1OC(C)=O` ? > 50 µM

Further, for `C[C@]1(CO)[C@H]2CC[C@@]3(CO3)[C@@H](/C=C/C3=CCOC3=O)[C@]2(C)CC[C@H]1O` ? > 50 µM

Further, for `CC(=O)O[C@@H]1CC[C@]2(C)[C@H](CC[C@@]3(CO3)[C@H]2/C=C/C2=CCOC2=O)[C@]1(C)CO[Si](c1ccccc1)(c1ccccc1)C(C)(C)C` ? 6.01 µM

Lab note: each molecule below needs its GI50 at 72 h filled in.
1. CC(C)[Si](OC[C@@]1(C)[C@H]2CC[C@@]3(CO3)[C@@H](/C=C/C3=CCOC3=O)[C@]2(C)CC[C@H]1O)(C(C)C)C(C)C
2. C=C1CC[C@@H]2[C@](C)(CO[Si](C)(C)C(C)(C)C)[C@H](OC(C)=O)CC[C@@]2(C)[C@@H]1/C=C/C1=CCOC1=O

["4.04 µM", "6.36 µM"]

###

Experiment: Growth inhibition of human KKU-M213 cells after 72 hrs by SRB assay
Assay type: functional
Conditions: KKU-M213, 72 h, read-out: ED50 (the source's name)
For each record, write down the corresponding pEC50.
Answers are plain numbers, as −log10 of the molar value.

Look up pEC50: `C=C1CC[C@@H]2[C@](C)(CO[Si](c3ccccc3)(c3ccccc3)C(C)(C)C)[C@H](OC(C)=O)CC[C@@]2(C)[C@@H]1/C=C/C1=CCOC1=O` 4.80

Further, for `C=C1CC[C@@H]2[C@](C)(CO[Si](C(C)C)(C(C)C)C(C)C)[C@H](O)CC[C@@]2(C)[C@@H]1/C=C/C1=CCOC1=O` ? 5.15

Further, for `CC(=O)O[C@@H]1CC[C@]2(C)[C@H](CC[C@@]3(CO3)[C@H]2/C=C/C2=CCOC2=O)[C@]1(C)CO[Si](c1ccccc1)(c1ccccc1)C(C)(C)C` ? 5.29

Further, for `C[C@]1(COC(c2ccccc2)(c2ccccc2)c2ccccc2)[C@H]2CC[C@@]3(CO3)[C@@H](/C=C/C3=CCOC3=O)[C@]2(C)CC[C@H]1O` ? 5.33

Please look at the following molecule next.
Look up pEC50: `CC(=O)O[C@@H]1CC[C@]2(C)[C@H](CC[C@@]3(CO3)[C@H]2/C=C/C2=CCOC2=O)[C@]1(C)COC(c1ccccc1)(c1ccccc1)c1ccccc1` 4.99
